I'd appreciate it if you could supply melting point values for the items below.

Please report the recorded melting point for CCOC(=O)c1cc(Br)cc2c(=O)c(OCCCN3CCN(Cc4ccc5ccccc5n4)CC3)c(-c3ccccc3)oc12 .
125 to 126 °C

What value of measured melting point is listed for CCOC(=O)c1cnc2cc(NC(C)=O)c(F)cc2c1O ?
320 °C

Any idea what melting point was measured for CC(C)C[C@H]1CN(Cc2ccccc2)C[C@@H]1C(=O)O ?
236 to 239 °C

Data request, read-out melting point, for CC(C)(Cn1c(CO)nc2c(N)nc3ccccc3c21)C(N)=O
201 to 203 °C

May I ask what melting point has been recorded for CCOC(=O)CC(NC(C)=O)C(=O)c1ccco1 (centres undefined) ?
82 to 84 °C

Looking for the measured melting point of COC(=O)[C@@H](Cc1ccccc1)Oc1c(Br)cc(-c2c3ccccc3c(Br)c3sc(C)c(C)c23)cc1C1CCCC1 , can you help?
167 to 168 °C

Form field: reported melting point of Cc1cc(-c2ccc(NS(C)(=O)=O)cc2)cc2ccc(=O)[nH]c12
340 to 343 °C

Which melting point value belongs to CC1CCCC1(Oc1ccc(CC(=O)c2ccc3c(c2)CCC3)cc1)C(=O)O (centres undefined) ?
191 to 193 °C

For CN(c1cccc2cc(C3=NCC(C)(CN4CCNCC4)S3)[nH]c12)S(=O)(=O)c1cccs1 (centres undefined) , what is its reported melting point?
178 to 180 °C

Record request: melting point value, item CCC(CC)(CC(=O)Nc1cccc(OCc2ccc3ccccc3n2)c1)C(=O)O
149 to 150 °C

Any idea what melting point was measured for O=[N+]([O-])c1c(OCc2ccccc2)ccnc1F ?
96 to 98 °C

Which melting point value is on record for CC(=O)Nc1ccc(NC(=NC#N)Oc2ccccc2)cn1 ?
194 °C

Reported melting point, compound COc1ccc(NC2C=CC3=Nc4ccccc4SC3=C2)cc1 (centres undefined) : ____
135 to 136 °C

Quick check: melting point of O=C(Nc1ccc(C(F)(F)F)cc1)C1=NN(c2ccc(Cl)nn2)C(c2ccc(F)cc2)C1 (centres undefined) ?
200 to 202 °C

I am curious: what melting point value has been reported for Cc1ccccc1CCc1nc2cc(Cl)c(S(N)(=O)=O)cc2[nH]1 ?
205 to 208 °C

State the recorded melting point for this entry: Oc1ccc(-c2cc(S)n3nccc3n2)cc1O
> 280 °C

Report melting point for O=S(=O)(Nc1cccc2cc(C3=NCCS3)[nH]c12)c1cccs1 please.
189 to 190 °C

Entry under review: c1cc2c(cc(-c3nnn[nH]3)c3nnnn32)s1 . Reported melting point?
267 to 269 °C

Fill blank: measured melting point of the compound N#CC(N)=C(C#N)NCc1cnn(-c2c(Cl)cc(C(F)(F)F)cc2Cl)n1 is ____.
191 to 192 °C

Which melting point value is on record for CC(C)(O)Cn1c(CO)nc2c(N)nc3cc(-c4ccc(F)c(F)c4)cnc3c21 ?
256 to 258 °C

Reported melting point, compound COc1cc(Nc2c(C#N)cnc3cc4cc(OCCN5CCC(O)CC5)c(OC)cc4cc23)c(Cl)cc1Cl : ____
193 to 198 °C

Quick one: melting point of IC#CCn1c2ccccc2c2ccccc21 ?
151 to 152 °C

# lookup: melting point of O=C(O)c1ccc(-c2ccc3cc(CCCO)c(C45CC6CC(CC(C6)C4)C5)cc3c2)cc1
268 to 269 °C

Look at this compound and give its reported melting point. CCCCCCOc1nccc(C(N)=O)c1Cl
75 to 77 °C

Using the record for CCOc1c(Nc2cc(C(F)(F)F)ccc2OC)c(=O)c1=O , report its melting point.
143 to 155 °C

Entry O=C(CSCc1cc(Br)cc2[nH]c(=O)c(=O)[nH]c12)Nc1ccccc1 : reported melting point = ?
> 250 °C

Report melting point for Nc1cc2c(Nc3ccc(Br)c(Br)c3)ncnc2cn1 please.
265 to 268 °C

# melting point lookup, item CC1CC(=O)NN=C1c1ccc(Nc2ccccc2)nc1 (centres undefined)
202 to 204 °C

Endpoint output: melting point of COC(=O)c1ccc(Nc2ccc(C(=O)OC)cc2)cc1 . Value?
174 to 175 °C

melting point lookup needed for COCc1nnc2ccc(-c3cccc(C(F)(F)F)c3)nn12 , thanks.
149 to 150 °C

Can you share its melting point? I mean this compound: CC(=O)c1ccnnc1
66.5 to 67.5 °C

Given O=[N+]([O-])c1cc2nc(O)c(O)nc2cc1C(F)(F)F , state its recorded melting point.
> 300 °C

Quick one: melting point of O=S(=O)(c1ccccc1)n1c(-c2c(F)cccc2F)nc2ccccc21 ?
104 to 106 °C

Given the compound Cc1ccc(C(=O)Nc2cc(-n3ccnc3C)cc(C(F)(F)F)c2)cc1Nc1nccc(-c2cccnc2)n1 , what is its reported melting point?
242 to 247 °C

All figures here come from a melting point compilation (Tetko et al.; mined from patent text by program, amines drawn as free bases though some values may be those of a salt).
